// provenance: patent US20070213310A1

- ASSAY_NOTES: logP measured by the shake-flask method
- Type: physicochemical
MEASURED_PARAMETER: logP

Ask: # query: logP of entry C[C@]12CC[C@@H]3c4cc(C56CC7CC(CC(C7)C5)C6)c(O)cc4CC[C@H]3[C@@H]1CC[C@@H]2O
Result: 6.51
